Recorded IC50 values for a group of molecules are listed next.
- Tested on: Bel-7402
- test_name: Antiproliferative activity against human Bel7402 after 72 hrs by CellTiter Glo assay
- Assay type: functional, cell-based
- conditions_used: Bel-7402, 72 h

{"smiles_entry": "COc1ccc2c(c1N)C(=O)O[C@@H]2[C@H]1c2c(cc3c(c2OC)OCO3)CCN1C", "IC50": "78.4 nM"}
{"smiles_entry": "CC(=O)O[C@@]12CO[C@@H]1C[C@H](O)[C@@]1(C)C(=O)[C@H](O)C3=C(C)[C@@H](OC(=O)[C@H](O)[C@@H](NC(=O)OC(C)(C)C)c4ccccc4)C[C@@](O)([C@@H](OC(=O)c4ccccc4)[C@H]21)C3(C)C.O.O.O", "IC50": "1.9 nM"}
{"smiles_entry": "C/C(=C\\c1csc(C)n1)[C@@H]1C[C@@H]2O[C@]2(C)CCC[C@H](C)[C@H](O)[C@@H](C)C(=O)C(C)(C)[C@@H](O)CC(=O)O1", "IC50": "0.9 nM"}
{"smiles_entry": "COc1ccc2c(c1OC)C(=O)O[C@@H]2[C@H]1c2c(cc3c(c2OC)OCO3)CCN1C", "IC50": "> 1000 nM"}
{"smiles_entry": "CC[C@]1(O)C[C@H]2CN(CCc3c([nH]c4ccccc34)[C@@](C(=O)OC)(c3cc4c(cc3OC)N(C=O)[C@H]3[C@@](O)(C(=O)OC)[C@H](OC(C)=O)[C@]5(CC)C=CCN6CC[C@]43[C@@H]65)C2)C1", "IC50": "4.2 nM"}
